Cited source: patent US20240400564A1

target: hERG (Homo sapiens); assay: Patch clamp assay (hERG tail currents, whole-cell); conditions: 3 μM compound
Sequence (Q12809 whole entry): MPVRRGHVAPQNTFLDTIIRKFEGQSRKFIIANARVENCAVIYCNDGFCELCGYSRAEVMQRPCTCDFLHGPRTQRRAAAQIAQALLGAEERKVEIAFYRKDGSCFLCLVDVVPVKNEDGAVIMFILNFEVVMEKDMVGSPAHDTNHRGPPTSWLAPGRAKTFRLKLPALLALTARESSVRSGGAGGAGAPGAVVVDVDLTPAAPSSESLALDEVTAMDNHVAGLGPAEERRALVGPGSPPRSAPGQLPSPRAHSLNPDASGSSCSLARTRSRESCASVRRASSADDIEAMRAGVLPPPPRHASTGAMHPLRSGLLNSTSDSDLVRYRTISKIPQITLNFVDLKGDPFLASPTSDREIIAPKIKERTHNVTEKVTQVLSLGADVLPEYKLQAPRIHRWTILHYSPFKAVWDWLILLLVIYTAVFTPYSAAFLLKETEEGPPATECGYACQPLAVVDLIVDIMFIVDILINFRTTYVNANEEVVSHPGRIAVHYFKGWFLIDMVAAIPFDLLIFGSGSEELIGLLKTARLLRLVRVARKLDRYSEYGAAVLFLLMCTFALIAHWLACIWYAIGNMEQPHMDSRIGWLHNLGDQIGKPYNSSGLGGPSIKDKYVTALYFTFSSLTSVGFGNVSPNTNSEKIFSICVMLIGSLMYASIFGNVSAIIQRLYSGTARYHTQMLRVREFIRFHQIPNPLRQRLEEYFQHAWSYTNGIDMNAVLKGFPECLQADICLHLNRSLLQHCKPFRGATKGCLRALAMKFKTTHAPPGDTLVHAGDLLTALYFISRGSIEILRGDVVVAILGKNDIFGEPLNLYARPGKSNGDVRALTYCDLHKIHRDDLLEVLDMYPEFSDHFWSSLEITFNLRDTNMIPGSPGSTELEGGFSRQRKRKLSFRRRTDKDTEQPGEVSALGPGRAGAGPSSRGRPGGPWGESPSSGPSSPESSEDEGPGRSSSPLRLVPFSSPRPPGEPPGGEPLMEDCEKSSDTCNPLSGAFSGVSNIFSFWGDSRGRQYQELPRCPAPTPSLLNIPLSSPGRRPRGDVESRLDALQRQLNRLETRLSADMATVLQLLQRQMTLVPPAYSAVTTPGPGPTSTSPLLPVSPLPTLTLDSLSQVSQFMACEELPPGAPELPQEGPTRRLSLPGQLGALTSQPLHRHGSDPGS

>  <Structure Smiles String>
CC(C)N(C(=O)c1cc(F)ccc1Oc1cncnc1N1CC2(CCN(C[C@@H]3CC[C@@H](NS(=O)(=O)N(C)C)CO3)CC2)C1)C1CC1

>  <hERG % Remaining>
+++ (≥66%)

$$$$
>  <Structure Smiles String>
CCN(C(=O)c1cc(F)ccc1Oc1cncnc1N1CC2(CCN(C[C@H]3CC[C@H](NS(=O)(=O)CC)CC3)CC2)C1)C(C)C

>  <hERG % Remaining>
+++ (≥66%)

$$$$
>  <Structure Smiles String>
CCS(=O)(=O)N[C@@H]1CC[C@@H](CN2CCC3(CC2)CN(c2ncncc2Oc2ccc(F)cc2C(=O)N(CC(F)F)C(C)C)C3)OC1

>  <hERG % Remaining>
+++ (≥66%)

$$$$
